// data source = paper PMC9482650

# experimentalSystem: DLG2_2, Q15700
# Sequence (Q15700 189-283): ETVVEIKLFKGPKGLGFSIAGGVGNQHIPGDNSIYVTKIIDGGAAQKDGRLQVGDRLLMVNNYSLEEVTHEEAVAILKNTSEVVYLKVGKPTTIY
# testMethodNotes: holdup assay
# Set-up: key: below the threshold = too weak to quantify, mostly under pKd 3.1 to 4
# assaySetup: plain residues with an end cap or a label only (N-terminal biotin on a linker: ado-ado)
measuredProperty: pKd

These recorded examples may help you get a feel for the data.
REEPDHSTEV [CCRL2, O00421]: 4.5
TRKRSGEAAV [PFKM, P08237]: 3.59
KSRVAFFEEL [NF2, P35240]: 3.51
SPDRDRESIV [SCN5A, Q14524]: 4.58
AEASVACSLC [PTGIR, P43119]: below the threshold
SRSVVESDEL [MYPN, Q86TC9]: below the threshold

Please find the next binder below.
Quick note, pKd for AQRARSPSDV [GPR12, P47775] landed at 3.49
